Taken from patent US20130251703A1.

# TESTED ON: human HER3 endogenously expressed on human cancer cells (SK-Br-3, BT-474, MCF7) (human, UniProt P21860 20-1342)
# EXPERIMENT DESCRIPTION: cell-based or functional assay
Answer each item with its documented SK-Br-3 pHER3 IC50.
Give your result in pM as a bare value.

Supply measured SK-Br-3 pHER3 IC50 of MOR12922 (antibody, human IgG1, lambda, V domains shown) VH: QVQLVQSGAEVKKPGASVKVSCKASGYTFTGYYMHWVRQAPGQGLEWMGVIDPYSGWTEYAQKFQGRVTMTRDTSISTAYMELSRLRSEDTAVYYCARGSFYTRDSYFDVWGQGTLVTVSS VL: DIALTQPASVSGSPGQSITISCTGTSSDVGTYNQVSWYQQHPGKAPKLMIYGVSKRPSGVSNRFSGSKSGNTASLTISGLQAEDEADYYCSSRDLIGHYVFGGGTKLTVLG in your reply.
81

Identify measured SK-Br-3 pHER3 IC50 associated with MOR12604 (antibody, V domains shown, Tested as IgG) VH: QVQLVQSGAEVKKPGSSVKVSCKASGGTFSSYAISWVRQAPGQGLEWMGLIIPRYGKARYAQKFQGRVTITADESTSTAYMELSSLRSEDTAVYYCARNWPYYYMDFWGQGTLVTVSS VL: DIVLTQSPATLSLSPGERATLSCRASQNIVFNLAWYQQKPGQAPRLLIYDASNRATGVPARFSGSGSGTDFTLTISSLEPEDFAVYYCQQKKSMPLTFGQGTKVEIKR
29

Give the reported SK-Br-3 pHER3 IC50 for this binder. MOR12921 (antibody, human IgG1, lambda, V domains shown, Tested as IgG) VH: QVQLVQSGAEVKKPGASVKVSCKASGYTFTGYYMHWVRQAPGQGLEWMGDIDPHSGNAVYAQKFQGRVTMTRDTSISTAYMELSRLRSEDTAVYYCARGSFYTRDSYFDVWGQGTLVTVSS VL: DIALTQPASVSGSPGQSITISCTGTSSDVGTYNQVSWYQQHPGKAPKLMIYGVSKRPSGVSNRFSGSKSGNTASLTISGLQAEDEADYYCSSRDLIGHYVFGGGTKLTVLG
252

Supply recorded SK-Br-3 pHER3 IC50 for MOR13669 (antibody, human IgG1, lambda, V domains shown) VH: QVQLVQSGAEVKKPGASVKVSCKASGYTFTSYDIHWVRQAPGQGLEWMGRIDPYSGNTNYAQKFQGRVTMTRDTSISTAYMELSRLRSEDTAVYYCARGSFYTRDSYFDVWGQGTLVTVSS VL: DIALTQPASVSGSPGQSITISCTGTSSDVGTYNQVSWYQQHPGKAPKLMIYGVSKRPSGVSNRFSGSKSGNTASLTISGLQAEDEADYYCSTATAMTVSLVFGGGTKLTVLG here.
743

Please indicate SK-Br-3 pHER3 IC50 recorded for MOR13656 (antibody, human IgG1, lambda, V domains shown) VH: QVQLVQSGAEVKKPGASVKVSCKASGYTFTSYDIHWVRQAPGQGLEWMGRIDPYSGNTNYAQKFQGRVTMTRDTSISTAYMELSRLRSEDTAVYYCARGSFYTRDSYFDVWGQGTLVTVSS VL: DIALTQPASVSGSPGQSITISCTGTSSDVGTYNQVSWYQQHPGKAPKLMIYGVSKRPSGVSNRFSGSKSGNTASLTISGLQAEDEADYYCAVRDSVWHVFGGGTKLTVLG
86

Dear colleague, please send me the reported SK-Br-3 pHER3 IC50 for MOR13657 (antibody, human IgG1, lambda, V domains shown, Tested as IgG) VH: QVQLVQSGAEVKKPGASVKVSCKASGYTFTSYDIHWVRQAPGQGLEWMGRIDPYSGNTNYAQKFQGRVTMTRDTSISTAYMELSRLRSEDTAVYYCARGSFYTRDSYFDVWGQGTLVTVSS VL: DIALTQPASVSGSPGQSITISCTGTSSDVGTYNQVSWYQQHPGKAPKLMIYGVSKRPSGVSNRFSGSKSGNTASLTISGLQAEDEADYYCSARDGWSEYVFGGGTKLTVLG when you can.
142

Hello, please tell me recorded SK-Br-3 pHER3 IC50 for this one: MOR14533 (antibody, human IgG1, kappa, V domains shown, Tested as IgG) VH: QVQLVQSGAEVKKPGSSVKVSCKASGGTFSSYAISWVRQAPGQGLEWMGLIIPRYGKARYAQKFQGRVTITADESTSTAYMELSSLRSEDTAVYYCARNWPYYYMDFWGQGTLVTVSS VL: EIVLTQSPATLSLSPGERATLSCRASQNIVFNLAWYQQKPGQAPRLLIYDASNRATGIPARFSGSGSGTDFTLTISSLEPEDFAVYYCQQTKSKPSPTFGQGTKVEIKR
20

# return recorded SK-Br-3 pHER3 IC50 for entry MOR12515 (antibody, human IgG1, lambda, V domains shown, Tested as IgG) VH: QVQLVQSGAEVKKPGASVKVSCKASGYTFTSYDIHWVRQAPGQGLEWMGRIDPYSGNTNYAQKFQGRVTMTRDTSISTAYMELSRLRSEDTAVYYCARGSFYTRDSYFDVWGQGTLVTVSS VL: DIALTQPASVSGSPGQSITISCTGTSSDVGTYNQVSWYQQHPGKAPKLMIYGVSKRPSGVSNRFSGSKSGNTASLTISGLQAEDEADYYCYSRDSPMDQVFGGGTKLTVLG
278

Please supply the value of reported SK-Br-3 pHER3 IC50 for the item MOR12615 (antibody, human IgG1, lambda, V domains shown, Tested as IgG) VH: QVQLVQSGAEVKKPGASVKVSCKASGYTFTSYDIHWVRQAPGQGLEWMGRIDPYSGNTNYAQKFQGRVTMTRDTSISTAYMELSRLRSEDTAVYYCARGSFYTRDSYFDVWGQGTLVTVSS VL: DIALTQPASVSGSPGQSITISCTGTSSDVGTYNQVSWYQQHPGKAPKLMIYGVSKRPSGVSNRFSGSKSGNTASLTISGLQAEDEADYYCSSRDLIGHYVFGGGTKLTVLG
179
